// data source = ChEMBL document CHEMBL3988442

The following molecules are listed with their measured Percent Effect values.
# System: Wolbachia pipientis
# measurement.protocol: Anti-Wolbachia Cell-Based Screen
# Assay type: functional
# Set-up: scale not given: in the data most compounds retested in dose-response had high values
# recorded.conditions: 5 µM
About 13,000 (27%) of roughly 48,000 compounds showed an effect of 50% or more. This is one part of the list.
readout.kind: Percent Effect (%)

>>> print(df.to_string())
                                   molecule    readout_kind  readout_unit  test_result
0  CCn1[nH]c(C)c2c(C(F)(F)C(F)(F)F)cc(=O)nc1-2  Percent Effect             %       -26.97
1  O=C(c1ccccc1)N1CCC2(CC1)CC(Oc1ccccc1)CO2 (stereo unspecified)  Percent Effect             %        2.639
2              CCc1cnc(N)nc1NCCCn1cc(Cl)cn1  Percent Effect             %        12.08
3  O=C(O)C(F)(F)F.O=C(c1cocn1)N1CCC2(CC1)CC(Oc1ccccn1)CO2 (stereo unspecified)  Percent Effect             %        3.532
4  COC1COC2(CCN(C(=O)c3cnc(C)cn3)CC2)C1 (stereo unspecified)  Percent Effect             %        14.55
5  CCCN(Cc1nccn1C)C(=O)C(CC)Nc1cccc(OC)c1 (stereo unspecified)  Percent Effect             %       -30.45

###

# System: Wolbachia pipientis
# measurement.protocol: Anti-Wolbachia Cell-Based Screen
# Format: functional
# Design: scale not given: in the data most compounds retested in dose-response had high values
# recorded.conditions: 5 µM
Screen size: about 48,000 compounds; about 13,000 (27%) showed an effect of 50% or more. This is one part of the list.
Recorded Percent Effect for the following molecules
readout.kind: Percent Effect (%)

                                   molecule  readout_unit  test_result
0    CN(Cc1ccsc1)c1nc(-c2ccccn2)nc2c1CCNCC2             %        9.446
1  O=C(c1ccc(-n2ccnc2)cc1)N1CCN(c2cnccn2)CC1             %        1.028
2  CC(=O)NCC(=O)NCC1(O)CCN(c2cnccn2)C1 (stereo unspecified)             %        78.54
3  COCCN1CC2(CCCN(C(=O)NCCc3cccs3)C2)CCC1=O (stereo unspecified)             %        2.041
4  CCCC(=O)NC1CCCN(c2nc3ccccc3cc2CO)C1 (stereo unspecified)             %       0.5391
5     COc1ccccc1OC1(C(=O)O)CCN(c2cnccn2)CC1             %       -132.5

###

# Tested on: Wolbachia pipientis
# measurement.protocol: Anti-Wolbachia Cell-Based Screen
# Type: functional
# Design: scale not given: in the data most compounds retested in dose-response had high values
# recorded.conditions: 5 µM
About 13,000 (27%) of roughly 48,000 compounds showed an effect of 50% or more. Some of the results follow.
readout.kind: Percent Effect (%)

                                    compound        tested_target  test_result
 0  COCCN1C[C@H]2CC[C@@H]1CN(C(=O)CCc1c(C)nn(C)c1C)C2  Wolbachia pipientis        8.536
 1  Cc1ccc(-c2ccc(C(=O)NCCC(=O)N(C)C)c(F)c2)cc1  Wolbachia pipientis       -15.57
 2  Cc1cc(C)cc(N2CCN(C(=O)CCN3C[C@@H]4CC[C@H]3C4)CC2=O)c1  Wolbachia pipientis        110.5
 3  COCC(C)N(C)C(=O)CCc1c(C)nc2c(C#N)cnn2c1C (centres undefined)  Wolbachia pipientis       -1.234
 4  COc1ccc(CC(=O)N2CCc3nc(C(=O)N(C)C)sc3CC2)cc1  Wolbachia pipientis       -11.26
 5    Cc1nc2cc(O)nn2c(C)c1CCC(=O)N(C)CCC(C)C  Wolbachia pipientis        96.83
 6  COC(=O)c1cccc(S(=O)(=O)NC(=O)c2cccc(OC)c2OC)c1  Wolbachia pipientis        4.901
 7  CN(C)CCN1CCN(Cc2cccc(C#N)c2)Cc2cccnc21.O=C(O)C(F)(F)F.O=C(O)C(F)(F)F.O=C(O)C(F)(F)F  Wolbachia pipientis        101.9
 8  Cc1cccc(C(C(=O)NCCCc2ccccn2)N(C)C)c1 (centres undefined)  Wolbachia pipientis       0.3434
 9      O=C(NCc1ccccc1CN1CCC(O)CC1)Nc1ccccc1  Wolbachia pipientis        6.714
10   CCCN(CC(F)F)C(=O)CCc1c(C)nc2cc(O)nn2c1C  Wolbachia pipientis        131.4
11  O=C(CCN1C[C@@H]2CC[C@H]1C2)N1CCN(c2cccc(Cl)c2)C(=O)C1  Wolbachia pipientis        108.3
12  CCN1CCCC(C)(C(=O)NCc2nncn2CCc2ccccc2)C1 (centres undefined)  Wolbachia pipientis        118.3
13         CN(C)CCN(C)S(=O)(=O)Cc1ccc(Br)cc1  Wolbachia pipientis       -1.249
14          COc1cccc(N2CCN(C(=O)CCO)CC2=O)c1  Wolbachia pipientis       0.6756
15  COCCN1CCC(NC(=O)NCC2(c3ccccc3)CC2)C1 (centres undefined)  Wolbachia pipientis       -5.464
16  CCN1CCCC(C)(C(=O)NCCCc2nc(C)cs2)C1 (centres undefined)  Wolbachia pipientis       -10.41
17  O=C(O)C(F)(F)F.O=S(=O)(c1ccccc1)N1C[C@@H]2COC[C@]2(CN2CCOCC2)C1  Wolbachia pipientis        14.04
18  COc1cccc(N2CCN(C(=O)C(O)c3cccc(Cl)c3)CC2=O)c1 (centres undefined)  Wolbachia pipientis        -25.1
19  O=C(Nc1ccccc1)C1CN(CC2CC2)CC12CCOCC2.O=C(O)C(F)(F)F (centres undefined)  Wolbachia pipientis       -9.303
20  CCC(C(=O)NC1(CN2CCOCC2)CCCC1)n1cccn1 (centres undefined)  Wolbachia pipientis       -7.135
21     Cc1cc(C(F)(F)F)nc(N(C)Cc2c(C)noc2C)n1  Wolbachia pipientis           12
22  CN(C)C(=O)NC1COC2(CCN(Cc3nccn3C)CC2)C1 (centres undefined)  Wolbachia pipientis        15.08
23  Cn1ccnc1CN1CCCC(CO)(CCc2ccccc2)C1 (centres undefined)  Wolbachia pipientis        4.446
24     Cc1nn(CCC#N)c(C)c1CCC(=O)N(C)Cc1ccsc1  Wolbachia pipientis        21.07
25  O=C(Nc1ccccc1)C1CN(CC2CCOCC2)CC12CCOCC2.O=C(O)C(F)(F)F (centres undefined)  Wolbachia pipientis       -3.242
26  CCN(CC)CC1CN(Cc2c(C)noc2C)Cc2nccn2C1 (centres undefined)  Wolbachia pipientis       -2.257
27  Cc1nc2cc(O)nn2c(C)c1CCC(=O)N(C)Cc1ccccc1  Wolbachia pipientis        86.37
28  CCC1(CO)CCCN(Cc2nccn2Cc2ccccc2)C1 (centres undefined)  Wolbachia pipientis        7.742
29  CNC(=O)C1(CCCc2ccccn2)CCN1Cc1coc(C)n1 (centres undefined)  Wolbachia pipientis        87.23
30  CN(C)c1nc2c(c(N(C)C)n1)CCN(C(=O)CN1C[C@@H]3CC[C@H]1C3)C2  Wolbachia pipientis       -4.711
31      CNc1nc(CNC(=O)Nc2ccc(OC(C)C)cc2C)cs1  Wolbachia pipientis        3.504
32           CCCNC(=O)CN1CCN(c2nc(CC)ns2)CC1  Wolbachia pipientis       -2.637
33  COCC1N(C(=O)Nc2ccccc2)[C@H]2CC[C@]1(O)CC2 (some centres undefined)  Wolbachia pipientis        103.1
34  Cc1nc2c(C#N)cnn2c(C)c1CCC(=O)N(C)C(C)C(C)C (centres undefined)  Wolbachia pipientis        7.938
35  O=C(Nc1ccccc1)N1C(CN2CCOCC2)[C@]2(O)CC[C@H]1CC2 (some centres undefined)  Wolbachia pipientis        91.52
36  COCc1nccc(C2CCCN(Cc3cccc(C#N)c3)C2)n1 (centres undefined)  Wolbachia pipientis       -9.239
37  Cc1nc(CN2CC(CCCc3ccccn3)(C(=O)N(C)C)C2)co1  Wolbachia pipientis        55.58
38  Cc1ccc2c(n1)N(CCN(C)C)CCN(Cc1c(C)noc1C)C2.O=C(O)C(F)(F)F.O=C(O)C(F)(F)F.O=C(O)C(F)(F)F  Wolbachia pipientis        11.23
39  Cc1cc(C(=O)Nc2cnn(CC(=O)NC3CCCC3)c2)c(C)s1  Wolbachia pipientis        2.888
40  CSc1nccc(N2C[C@@H]3CC[C@H](C2)N(CC2CCC2)C3=O)n1  Wolbachia pipientis        23.13
41  Cc1cc2c(cc1C)OC(C(=O)NCCNC(=O)C1CCCC1)C2 (centres undefined)  Wolbachia pipientis       -3.964
42         O=C(CCCc1ccccn1)N1CCC(n2cccc2)CC1  Wolbachia pipientis        17.05
43  CCN1CCCC(C)(C(=O)NCCc2n[nH]c(=O)[nH]2)C1 (centres undefined)  Wolbachia pipientis        34.99
